- System: PXR:RXRa (NR concentration 270 nM, RXRa partner concentration 90 nM)
- TEST NAME: PBM binding z-score (relative to random genomic background probes); higher = stronger binding; sequences stand for … in GC…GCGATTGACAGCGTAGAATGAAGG
Hi, to clarify the labels: 1 (yes) covers PBM binding z-score from 2 upward, 0 (no) covers anything below 2.

### Prompt Test whether the sequence `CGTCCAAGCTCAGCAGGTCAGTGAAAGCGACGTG` records PBM binding z-score of 2 or higher.
### Response 0 (no)

### Prompt Entry `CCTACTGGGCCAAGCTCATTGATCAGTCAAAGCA` : is its PBM binding z-score no less than 2?
### Response 0 (no)

### Prompt Exam item: decide whether the reported PBM binding z-score for `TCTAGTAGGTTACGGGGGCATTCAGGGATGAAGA` is at least 2.
### Response 1 (yes)

### Prompt Given the entry `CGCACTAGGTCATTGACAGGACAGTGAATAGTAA` , answer whether its PBM binding z-score meets or surpasses 2.
### Response 0 (no)

### Prompt Form field: PBM binding z-score at least 2? Entry: `ATATGTAGGTTAGGGTCATTCATAAAGTAGGGAA`
### Response 1 (yes)

### Prompt Tell me whether PBM binding z-score is at least 2 here: `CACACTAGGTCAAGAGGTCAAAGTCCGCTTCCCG`
### Response 1 (yes)

### Prompt Hi team, for `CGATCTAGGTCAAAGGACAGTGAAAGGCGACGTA` , is the recorded PBM binding z-score at or above 2?
### Response 0 (no)

### Prompt Is PBM binding z-score for `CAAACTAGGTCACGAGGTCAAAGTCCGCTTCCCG` at or above 2?
### Response 1 (yes)

### Prompt Has `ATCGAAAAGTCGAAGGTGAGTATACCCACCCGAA` a recorded PBM binding z-score greater than or equal to 2?
### Response 0 (no)

### Prompt Determine whether measured PBM binding z-score meets or exceeds 2 for `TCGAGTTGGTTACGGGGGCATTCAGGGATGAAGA`
### Response 1 (yes)

### Prompt Determine whether this sequence has PBM binding z-score no lower than 2: `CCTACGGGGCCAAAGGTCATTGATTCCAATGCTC`
### Response 1 (yes)

### Prompt Hi, just wondering whether `ATATGGAGGTTAAGGGTCATTCAGGTTGGTTCGC` shows PBM binding z-score of 2 or higher.
### Response 1 (yes)

Cited source: the supplement of paper PMC6555819
